- System: CRL-2813
- Protocol Text: Cell growth assay (sulforhodamine B), CRL-2813 cells
- Type: cell-based, human
- Condition Info: Homo sapiens, CRL2813, 120 h, 5 days, SRB
Each item that follows carries a reported IC50.
Write your answer as a measured quantity: the number, then the unit.

| Compound | IC50 |
| --- | --- |
| COc1ccc(C2(c3cc(C(C)(C)C)ccc3OCCN3CCOCC3)C(=O)Nc3ccccc32)cc1 (stereo not drawn) | 2.4 µM |

Write down the reported IC50 of CC(=O)OCCOc1ccc(C(C)(C)C)cc1C1(c2cc(C(C)(C)C)ccc2OCCOC(C)=O)C(=O)Nc2ccccc21 , test system: CRL-2813.
2 µM

====

- Test system: CRL-2813
- Protocol Text: Cell growth assay (sulforhodamine B), CRL-2813 cells
- Assay type: cell-based, human
- Condition Info: Homo sapiens, CRL2813, 120 h, 5 days, SRB
- Method: Adherent mouse (KLN) and human solid tumor cells (CRL-2351, and CRL-2813) were plated in 96-well plates and maintained for 5 days in the presence of 0.54 to 6 μM of individual compound, and cell proliferation was measured by the sulforhodamine B (SRB) assay as described in ref. 11: briefly, cells were fixed in 10% cold trichloroacetic acid at 4° C. for 1 h, extensively washed with double-distilled H2O and air-dried. […]
Readout: IC50

Worked examples follow.
| Molecule | IC50 |
| --- | --- |
| CC(C)(C)c1ccc(OCCOC2OC(CO)C(O)C(O)C2O)c(C2(c3cc(C(C)(C)C)ccc3OCCOC3OC(CO)C(O)C(O)C3O)C(=O)Nc3ccccc32)c1 (stereo not shown) | > 20 µM |
| COc1ccc(C2(c3cc(C(C)(C)C)ccc3OCCN3CCOCC3)C(=O)Nc3ccccc32)cc1OC (stereo not shown) | > 20 µM |
| CN1CCN(CCOc2ccc(C(C)(C)C)cc2C2(c3cc(C(C)(C)C)ccc3OCCN3CCN(C)CC3)C(=O)N(CCN3CCNCC3)c3ccccc32)CC1 | > 20 µM |
| CN(C)CCN1C(=O)C(c2cc(C(C)(C)C)ccc2O)(c2cc(C(C)(C)C)ccc2O)c2ccccc21 | > 20 µM |

Entry under review: CC(C)c1ccc(O)c(C2(c3cc(C(C)C)ccc3O)C(=O)Nc3ccccc32)c1 . Reported IC50?
2.9 µM

Repeat for the following molecule: CC(C)(C)c1ccc(O)c(C2(c3cc(C(C)(C)C)ccc3OCCN3CCCC3)C(=O)Nc3ccccc32)c1 (stereo not shown)
10.7 µM

Repeat for the following molecule: CC(C)(C)c1ccc(O)c(C2(c3cc(C(C)(C)C)ccc3O)C(=O)Nc3ccccc32)c1
10.2 µM

====

- System: CRL-2813
- Protocol Text: Cell growth assay (sulforhodamine B), CRL-2813 cells
- Assay type: cell-based, human
- Condition Info: Homo sapiens, CRL2813, 120 h, 5 days, SRB
// boundary case: IC50 equal to 3 µM maps to NO; strictly smaller maps to YES

Here are 2 molecules together with their reported answers.
| Molecule | Qualitative Label |
| --- | --- |
| COc1ccc(C(C)C)cc1C1(c2cc(C(C)C)ccc2OC)C(=O)Nc2ccccc21 | YES |
| CN(C)CCOc1ccc(C(C)(C)C)cc1C1(c2cc(C(C)(C)C)ccc2O)C(=O)Nc2ccccc21 (stereo not shown) | YES |

I'd appreciate it if you could check whether CC(C)(C)c1ccc(OCCO)c(C2(c3cc(C(C)(C)C)ccc3OCCO)C(=O)Nc3ccccc32)c1 has IC50 smaller than 3 µM.
YES

====

- Tested on: CRL-2813
- Protocol Text: Cell growth assay (sulforhodamine B), CRL-2813 cells
- Format: cell-based, human
- Condition Info: Homo sapiens, CRL2813, 120 h, 5 days, SRB
- Experimental: Adherent mouse (KLN) and human solid tumor cells (CRL-2351, and CRL-2813) were plated in 96-well plates and maintained for 5 days in the presence of 0.54 to 6 μM of individual compound, and cell proliferation was measured by the sulforhodamine B (SRB) assay as described in ref. 11: briefly, cells were fixed in 10% cold trichloroacetic acid at 4° C. for 1 h, extensively washed with double-distilled H2O and air-dried. […]
Readout: IC50

| Compound | IC50 |
| --- | --- |
| CCN(CC)CCOc1ccc(C(C)(C)C)cc1C1(c2cc(C(C)(C)C)ccc2O)C(=O)Nc2ccccc21 (stereo not shown) | 1.5 µM |
| COc1ccc(C2(c3cc(C(C)(C)C)ccc3OCCN3CCOCC3)C(=O)Nc3ccc(OC)cc32)cc1 (stereo not shown) | 2.9 µM |
| CC(C)(C)c1ccc(O)c(C2(c3ccc(O)cc3)C(=O)Nc3ccccc32)c1 (stereo not shown) | 4 µM |
| CN(C)c1ccc(C2(c3cc(C(C)(C)C)ccc3O)C(=O)Nc3ccccc32)cc1 (stereo not shown) | 11 µM |
| CC(C)(C)c1ccc(O)c(C2(c3cc(C(C)(C)C)ccc3O)C(=O)N(CCN3CCOCC3)c3ccccc32)c1 | 1.6 µM |

Entry under review: CN(C)c1ccc(C2(c3cc(C(C)(C)C)ccc3OCCN3CCOCC3)C(=O)Nc3ccccc32)cc1 (stereo not shown) . Reported IC50?
7.5 µM

Repeat for the following compound: COc1ccc(C2(c3cc(C(C)(C)C)ccc3O)C(=O)Nc3c2ccc(F)c3F)cc1 (stereo not shown)
3 µM
